- Tested on: MDA-MB-231
- test.description: Cytotoxicity against human MDA-MB-231 cells after 48 hrs by MTT assay
- Type: functional, cell-based
- applied.conditions: MDA-MB-231, 48 h
endpoint.name: pIC50
Numbers only, as −log10 of the molar value.

>  <compound>
Cc1ccc(Cn2c(/C=C3\SC(=S)N(CC(=O)O)C3=O)nc3cc(Cl)ccc32)cc1

>  <assayed.system>
MDA-MB-231

>  <numeric.value>
4.86

$$$$
>  <compound>
O=C(O)CN1C(=O)/C(=C/c2nc3ccccc3n2Cc2ccc(Br)cc2)SC1=S

>  <assayed.system>
MDA-MB-231

>  <numeric.value>
5.06

$$$$
>  <compound>
O=C(O)CN1C(=O)/C(=C/c2nc3ccccc3n2Cc2ccc([N+](=O)[O-])cc2)SC1=S

>  <assayed.system>
MDA-MB-231

>  <numeric.value>
5.11

$$$$
>  <compound>
O=C(O)CN1C(=O)/C(=C/c2nc3cc(Cl)ccc3n2Cc2ccccc2F)SC1=S

>  <assayed.system>
MDA-MB-231

>  <numeric.value>
5.78

$$$$
>  <compound>
CCn1c(/C=C2\SC(=S)N(CC(=O)O)C2=O)nc2ccccc21

>  <assayed.system>
MDA-MB-231

>  <numeric.value>
5.73

$$$$
>  <compound>
O=C(O)CN1C(=O)/C(=C/c2nc3ccccc3n2Cc2ccc(F)cc2F)SC1=S

>  <assayed.system>
MDA-MB-231

>  <numeric.value>
4.94

$$$$

Hey, can you go through the list below and give me pIC50 for every item?
1. COc1ccc2nc(/C=C3\SC(=S)N(CC(=O)O)C3=O)n(Cc3ccccc3F)c2c1
2. O=C(O)CN1C(=O)/C(=C/c2nc3ccccc3n2Cc2ccc(C(F)(F)F)cc2)SC1=S
3. O=C(O)CN1C(=O)/C(=C/c2nc3ccccc3n2Cc2ccc(Br)cc2F)SC1=S
4. O=C(O)CN1C(=O)/C(=C/c2nc3ccccc3n2Cc2cccc(F)c2)SC1=S
5. O=C1NC(=S)S/C1=C\c1nc2ccccc2n1Cc1ccccc1F
6. COc1ccc(C(=O)Cn2c(/C=C3\SC(=S)N(CC(=O)O)C3=O)nc3ccccc32)cc1
7. N#Cc1ccc(Cn2c(/C=C3\SC(=S)N(CC(=O)O)C3=O)nc3ccccc32)cc1

Reply:
1: 4.65; 2: 4.90; 3: 4.55; 4: 4.65; 5: 4.67; 6: 4.89; 7: 4.95
